Please provide measured Fold Increase for the entries that follow.
# system.name: T1, human TrkA receptor on the cell surface (human, UniProt P04629 33-796)
# T1 construct: whole, on cells; PC12-hTrkA: high density; also called hTrkA; huTrkA
# measurement.protocol: flow cytometry on TF-1 cells, 4 µg/ml
Lab book: enter the figure in fold, no units written.

Prompt: // Fold Increase lookup, key: BXhVH5VL2 (antibody, human IgG1, V domains shown, Human IgG1 constant regions (IgG1 expression vectors); COS-7 supernatant; also called hVH5/hVL2) VH: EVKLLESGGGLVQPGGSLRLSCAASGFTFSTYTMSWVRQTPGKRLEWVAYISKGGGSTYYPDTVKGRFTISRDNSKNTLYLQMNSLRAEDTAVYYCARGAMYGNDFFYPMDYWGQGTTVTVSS VL: EIVLTQSPATLSLSPGERATLSCSASSSVSYMHWYQQKPGQSPRLLIYTTSNLASGIPSRFSGSGSGTDFTLTISSLEPEDAADYYCHQWSSYPWTFGQGTKLEIK
Response: 2.5

Prompt: // Fold Increase lookup, key: BXhVH1VL6 (antibody, human IgG1, V domains shown, Human IgG1 constant regions (IgG1 expression vectors); COS-7 supernatant; also called hVH1/hVL6) VH: EVKLLESGGGLVQPGGSLRLSCAASGFTFSTYTMSWVRQTPGKGLEWVAYISKGGGSTYYPDTVKGRFTISRDNSKNTLYLQMNSLRAEDTAVYYCAKGAMYGNDFFYPMDYWGQGTTVTVSS VL: EIVLTQSPATLSLSPGEEATLSCSASSSVSYMHWYQQKPGQSPRLLIYTTSNLASGIPSRFSGSGSGTFYTLTISSLEPEDAADYYCHQWSSYPWTFGGGTKLEIK
Response: 1.4

Prompt: // Fold Increase lookup, key: BXhVH1VL5 (antibody, human IgG1, V domains shown, Human IgG1 constant regions (IgG1 expression vectors); COS-7 supernatant; also called hVH1/hVL5) VH: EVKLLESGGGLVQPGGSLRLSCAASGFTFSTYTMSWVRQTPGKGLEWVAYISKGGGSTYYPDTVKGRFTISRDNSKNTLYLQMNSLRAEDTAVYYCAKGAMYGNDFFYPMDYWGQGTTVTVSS VL: QIVLTQSPATLSLSPGERATLSCSASSSVSYMHWYQQKPGQSPRLLIYTTSNLASGIPSRFSGSGSGTDYTLTISSLEPEDAADYYCHQWSSYPWTFGQGTKLEIK
Response: 1.3
